# study conditions: human gut metagenome, 24 h, 2 µM; also: call rule not given here
quantity name: Bacterial Biotransformation

Consider the following illustrative entries.
| compound | Bacterial Biotransformation |
| --- | --- |
| CC(=O)O[C@H]1C(=O)[C@@]2(C)[C@H]([C@H](OC(=O)c3ccccc3)[C@]3(O)C[C@H](OC(=O)[C@H](O)[C@@H](NC(=O)c4ccccc4)c4ccccc4)C(C)=C1C3(C)C)[C@]1(OC(C)=O)CO[C@@H]1C[C@@H]2O [PACLITAXEL] | Compound NOT metabolized |
| N#Cc1ccc2c(c1)N(CCCN1CCC(O)CC1)c1ccccc1S2 [PERICIAZINE] | Compound metabolized |
| CN(CCOc1ccc(CC2SC(=O)NC2=O)cc1)c1ccccn1.O=C(O)/C=C\C(=O)O (stereo not drawn) [ROSIGLITAZONE MALEATE] | Compound metabolized |
| O=C1N=C([O-])NC1(c1ccccc1)c1ccccc1.[Na+] [PHENYTOIN SODIUM] | Compound metabolized |
| Cc1ccccc1C(OCCN(C)C)c1ccccc1.O=C(O)CC(O)(CC(=O)O)C(=O)O (stereo not drawn) [ORPHENADRINE CITRATE] | Compound NOT metabolized |

Ask: Could you tell me which Bacterial Biotransformation is on file for O=C1CN2Cc3c(ccc(Cl)c3Cl)N=C2N1 [ANAGRELIDE] ?
Reply: Compound metabolized

Ask: Let us now turn to CC(=O)OCC(CCn1cnc2cnc(N)nc21)COC(C)=O [FAMCICLOVIR]
Reply: Compound metabolized

Ask: Next compound: CC(=O)CCCCn1c(=O)c2c(ncn2C)n(C)c1=O [PENTOXIFYLLINE]
Reply: Compound metabolized

----------
# protocol summary: The drug is tested on Z-013 corresponding to rabbit gut metagenome with ENA study accession number: PRJEB37062 and ENA sample accession number: ERS12561813 for biotransformation under anaerobic condition. The drug concentrations were measured over 9 timepoints collected between 0 and 24 hours of incubation by liquid-chromatography-coupled mass spectrometry (LC–MS)
# study conditions: 2 µM
quantity name: Bacterial Biotransformation

| compound | Bacterial Biotransformation |
| --- | --- |
| O=C1CN2Cc3c(ccc(Cl)c3Cl)N=C2N1 [ANAGRELIDE] | Compound NOT metabolized |
| CC(C)NCC(O)COc1ccc(CC(N)=O)cc1 (stereo unspecified) | Compound NOT metabolized |
| COc1ccc(CN2CCNCC2)c(OC)c1OC.Cl.Cl [TRIMETAZIDINE DIHYDROCHLORIDE] | Compound NOT metabolized |
| CC(C)(C)NCC(O)COc1cccc2c1CC(O)C(O)C2 (stereo unspecified) | Compound NOT metabolized |
| CC#C[C@]1(O)CC[C@H]2[C@@H]3CCC4=CC(=O)CCC4=C3[C@@H](c3ccc(N(C)C)cc3)C[C@@]21C | Compound metabolized |

Ask: Which Bacterial Biotransformation value is on record for "O=C1CC2(CCCC2)CC(=O)N1CCCCN1CCN(c2ncccn2)CC1" ?
Reply: Compound NOT metabolized

Ask: Next entry: "CCOC(=O)C1=C[C@]2(CC)CCCN3CCc4c(n1c1ccccc41)[C@@H]32"
Reply: Compound NOT metabolized

----------
# study conditions: human gut metagenome, 24 h, 2 µM
quantity name: Bacterial Biotransformation

| molecule | Bacterial Biotransformation |
| --- | --- |
| Cc1cc(C)cc(OCC2CNC(=O)O2)c1 (centres undefined) | Compound metabolized |
| CC[C@H](C)C(=O)O[C@H]1CCC=C2C=C[C@H](C)[C@H](CC[C@@H]3C[C@@H](O)CC(=O)O3)[C@H]21 | Compound metabolized |
| CC1Cc2ccccc2N1NC(=O)c1ccc(Cl)c(S(N)(=O)=O)c1 (centres undefined) [INDAPAMIDE] | Compound NOT metabolized |
| CCCCCNC(=N)N/N=C/c1c[nH]c2ccc(OC)cc12.O=C(O)/C=C\C(=O)O [TEGASEROD MALEATE] | Compound NOT metabolized |

Ask: GET /values?readout=Bacterial Biotransformation&item= "CCOC(=O)[C@H](CCc1ccccc1)N[C@@H](C)C(=O)N1Cc2ccccc2C[C@H]1C(=O)O"
Reply: Compound metabolized

Ask: Next record, please: "O=C(CCCN1CCC2(CC1)C(=O)NCN2c1ccccc1)c1ccc(F)cc1"
Reply: Compound metabolized

Ask: Same thing, different molecule: "CCS(=O)(=O)CCn1c([N+](=O)[O-])cnc1C"
Reply: Compound metabolized

Ask: How about this molecule: "C[C@]12C=CC(=O)C=C1CC[C@@H]1[C@@H]2C(=O)C[C@@]2(C)[C@H]1CC[C@]2(O)C(=O)CO"
Reply: Compound metabolized

Ask: Note, next up: "N=C(N)NC(=O)Cc1c(Cl)cccc1Cl"
Reply: Compound NOT metabolized

FYI, the data here is from ChEMBL document CHEMBL5724914.
